All figures here come from patent US20080027098A1.

Task for the reader: assign each of the following compounds its reported activation at 20 µM.
Biological target: Gal4DBD/PPARαLBD (Homo sapiens, UniProt Q07869)
Construct: expressed in transfected cells; host or cells: COS-7 (monkey kidney fibroblasts)
Sequence (Q07869 239-466 limits assumed): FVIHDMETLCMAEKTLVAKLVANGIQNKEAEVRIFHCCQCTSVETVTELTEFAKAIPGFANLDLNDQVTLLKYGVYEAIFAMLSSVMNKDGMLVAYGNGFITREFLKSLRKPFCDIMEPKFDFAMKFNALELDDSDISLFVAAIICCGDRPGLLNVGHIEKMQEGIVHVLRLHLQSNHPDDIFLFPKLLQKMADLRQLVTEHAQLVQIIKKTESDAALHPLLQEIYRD
Experiment: Transient transfection of COS-7 cells, Gal4DBD/PPARαLBD transactivation, CAT reporter (II method)
Type: cell-based
Conditions: 20 μM, read-out: percentage activation of the CAT reporter gene compared to reference compound WY-14.643 2 μM taken as 100%
Answers are plain numbers, in %.

COc1ccc2c(ccn2CCOc2ccc(SC(C)(C)C(=O)O)cc2)c1    193

Please give activation at 20 µM, item by item, for the list that follows.
1. COC(=O)C(C)(C)Sc1cccc(OCCc2ccc3ccccc3c2)c1
2. CC(C)(Sc1ccc(OCCn2ccc3ccccc32)cc1)C(=O)O

360
231

Count: 6. Required value per item: activation at 20 µM.
1. COC(=O)C(C)(C)Sc1cccc(OCc2ccc(-c3ccc([N+](=O)[O-])cc3)o2)c1
2. COC(=O)C(C)(C)Sc1cccc(OCCc2ccc(Cl)cc2Cl)c1
3. COC(=O)C(C)(C)Sc1ccc(OCCn2ccc3cc(OC)ccc32)cc1
4. COC(=O)C(C)(C)Sc1ccc(OCCn2ccc3cc(OCc4ccccc4)ccc32)cc1
5. CC(C)(Sc1cccc(OCCc2ccc(Cl)cc2Cl)c1)C(=O)O
6. CC(C)(Sc1ccc(OCCn2ccc3cc(OCc4ccccc4)ccc32)cc1)C(=O)O

1. 288
2. 285
3. 269
4. 291
5. 199
6. 177

###

Please go through the items and note down their melting point.

Could I get melting point for every one of these entries?
1. CC(C)(Sc1cccc(OCCc2ccc(Cl)cc2)c1)C(=O)O
2. COC(=O)C(C)(C)Sc1ccc(O)cc1
3. COC(=O)C(C)(C)Sc1cccc(O)c1
4. COC(=O)C(C)(C)Sc1ccc(OC(=O)NCc2ccc(OC)cc2)cc1
5. CC(C)(Sc1ccc(OCCc2ccc(Cl)cc2)cc1)C(=O)O
6. COC(=O)C(C)(C)Sc1ccc(OCCn2c3ccccc3c3ccccc32)cc1
7. COC(=O)C(C)(C)Sc1cccc(OC(=O)Nc2ccc(C(F)(F)F)cc2)c1

1: 105 to 106 °C; 2: 110 to 112 °C; 3: 41.5 to 42.5 °C; 4: 64 to 65 °C; 5: 87 to 88 °C; 6: 72 to 74 °C; 7: 66 to 67 °C

Per the records, this molecule ( COC(=O)C(C)(C)Sc1ccc(OC(=O)Nc2ccc(C(F)(F)F)cc2)cc1 ) has melting point equal to 110 to 111 °C

###

Exercise: for every item that follows, state its recorded melting point.

Here's what some known entries look like.
COC(=O)C(C)(C)Sc1ccc(OCCc2ccc3ccccc3c2)cc1 [ST2011]    56 to 57 °C
CC(C)(Sc1ccc(O)cc1)C(=O)O [ST1981, 2-(4-hydroxyphenylthio)isobutyric acid]    152 to 154 °C
COC(=O)C(C)(C)Sc1ccc(OCCc2ccc(Cl)cc2Cl)cc1 [ST2531]    73 to 74 °C

Please go through the list and note melting point for each compound.
1. COC(=O)C(C)(C)Sc1cccc(OCCn2c3ccccc3c3ccccc32)c1 [ST2365]
2. COC(=O)C(C)(C)Sc1cccc(OCc2ccc(-c3ccc([N+](=O)[O-])cc3)o2)c1 [ST2501]

["101 to 103 °C", "81 to 82 °C"]
